target: CFTR-mediated chloride transport in human intestinal epithelial enteroid cells (Homo sapiens, UniProt P13569); assay: Membrane potential dye, Enteroid Assay A; format: cell-based; settings: Enteroid Assay A; read-out: Ent. A EC50
Sequence (P13569 with tags, fused parts or gaps DEL508-508): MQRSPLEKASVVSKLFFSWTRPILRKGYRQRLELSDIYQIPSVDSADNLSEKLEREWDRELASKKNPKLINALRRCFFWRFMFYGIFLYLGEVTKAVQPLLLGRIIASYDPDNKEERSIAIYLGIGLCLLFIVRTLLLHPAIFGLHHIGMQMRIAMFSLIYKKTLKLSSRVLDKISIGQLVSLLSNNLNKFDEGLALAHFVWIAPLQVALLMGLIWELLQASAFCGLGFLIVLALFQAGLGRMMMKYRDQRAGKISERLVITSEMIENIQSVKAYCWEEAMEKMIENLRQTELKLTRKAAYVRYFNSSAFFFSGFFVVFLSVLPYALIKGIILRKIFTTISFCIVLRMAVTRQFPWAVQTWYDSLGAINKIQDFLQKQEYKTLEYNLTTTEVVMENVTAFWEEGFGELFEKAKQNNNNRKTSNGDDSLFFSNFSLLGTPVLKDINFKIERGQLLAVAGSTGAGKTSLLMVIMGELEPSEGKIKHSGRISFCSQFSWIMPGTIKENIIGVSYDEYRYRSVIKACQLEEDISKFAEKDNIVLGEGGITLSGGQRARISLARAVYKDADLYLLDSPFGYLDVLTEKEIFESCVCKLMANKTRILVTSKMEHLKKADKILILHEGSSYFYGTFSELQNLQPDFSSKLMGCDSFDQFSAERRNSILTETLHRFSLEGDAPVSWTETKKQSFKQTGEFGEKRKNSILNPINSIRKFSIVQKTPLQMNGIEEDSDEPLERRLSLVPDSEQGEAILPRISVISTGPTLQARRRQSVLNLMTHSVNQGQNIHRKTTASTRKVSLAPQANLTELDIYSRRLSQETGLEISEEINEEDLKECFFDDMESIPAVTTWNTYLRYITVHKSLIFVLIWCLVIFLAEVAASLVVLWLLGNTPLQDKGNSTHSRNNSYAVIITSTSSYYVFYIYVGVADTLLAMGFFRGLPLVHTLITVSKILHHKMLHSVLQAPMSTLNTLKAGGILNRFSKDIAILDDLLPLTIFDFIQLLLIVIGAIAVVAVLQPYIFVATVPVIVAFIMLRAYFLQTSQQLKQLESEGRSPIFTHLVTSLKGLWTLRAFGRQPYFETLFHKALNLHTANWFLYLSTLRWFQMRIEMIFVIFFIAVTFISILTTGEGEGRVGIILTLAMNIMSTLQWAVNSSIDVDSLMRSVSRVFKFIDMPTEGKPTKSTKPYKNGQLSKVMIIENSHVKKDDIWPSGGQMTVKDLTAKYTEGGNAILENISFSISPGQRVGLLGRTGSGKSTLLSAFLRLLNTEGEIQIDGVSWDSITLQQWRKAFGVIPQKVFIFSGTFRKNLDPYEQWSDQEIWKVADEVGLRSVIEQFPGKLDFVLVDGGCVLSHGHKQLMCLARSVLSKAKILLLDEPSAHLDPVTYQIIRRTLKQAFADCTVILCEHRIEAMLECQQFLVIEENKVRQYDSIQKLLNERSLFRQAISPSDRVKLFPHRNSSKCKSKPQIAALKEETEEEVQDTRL
pEC50: −log10 of the molar value.
Below: a set of entries, each annotated with reported pEC50.

Examples with answers:
- Cc1cccc(C)c1-c1cc2nc(n1)NS(=O)(=O)c1cccc(c1)C(=O)N1CCN(C3CC4(CCCC4)C3)C[C@H](C1)O2 [Compound 8]: > 6.00
- Cc1cccc(C)c1-c1cc2nc(n1)NS(=O)(=O)c1cccc(c1)C(=O)N1CCN(C(=O)OCc3ccccc3)C[C@H](O2)[C@H]1C (single isomer, unassigned) [Compound 112]: > 6.00
- Cc1cccc(C)c1-c1cc2nc(n1)NS(=O)(=O)c1cccc(c1)C(=O)N1CCN(C(=O)CC(C)(C)C)C[C@H](C1)O2 [Compound 81]: 5.52 to 6.00
- Cc1cccc(C)c1-c1cc2nc(n1)NS(=O)(=O)c1cccc(c1)C(=O)N1C[C@@H](CN(CCC(C)(C)C)[C@@H](CC(C)C)C1)O2 [Compound 155]: > 6.00
- Cc1cccc(C)c1-c1cc2nc(n1)NS(=O)(=O)c1cccc(c1)C(=O)N1C[C@@H](CN(C)C[C@@H]1CC(C)(C)C)O2 [Compound 136]: > 6.00
- Cc1cccc(C)c1-c1cc2nc(n1)NS(=O)(=O)c1cccc(c1)C(=O)N1CCN(C(C)C)C[C@H](C1)O2 [Compound 75]: > 6.00

Pending compound:
What the record says about Cc1cccc(C)c1-c1cc2nc(n1)NS(=O)(=O)N1CCc3ccc(cc31)C(=O)N1Cc3ccccc3[C@@H](O2)[C@H]1CC(C)C [Compound 249] : pEC50 is > 6.00
